Reference source: paper PMC7395068

test system: HepaRG spheroids
quantity-kind: DILI prediction HepaRG spheroids (HCS-MEC)

>>> print(df.to_string())
                                   compound  assay_result
0  CCOC(=O)c1ncn2c1CN(C)C(=O)c1cc(F)ccc1-2 [flumazenil, reference compound]           -VE
1          CN(C)C(=O)Oc1cccc([N+](C)(C)C)c1           -VE
2  CC(COc1ccccc1)N(CCCl)Cc1ccccc1 (stereo not drawn)           -VE

----------
tested on: HepaRG spheroids; experiment: Combined HCI (HCS) and cellular ATP 3D assay in HepaRG spheroids; settings: HepaRG; all endpoints; cut-off <10 uM
quantity-kind: HepaRG <10 uM All

>>> df
                                   molecule  assay_result
0  CCc1nn(CCCN2CCN(c3cccc(Cl)c3)CC2)c(=O)n1CCOc1ccccc1 [nefazodone, reference compound]  +ve (<10 uM)
1                     CC(=O)Oc1ccccc1C(=O)O           -ve
2  CN(C)CCCN1c2ccccc2Sc2ccc(Cl)cc21 [chlorpromazine, reference compound]  +ve (<10 uM)
3  N[C@@H](Cc1cc(I)c(Oc2ccc(O)c(I)c2)c(I)c1)C(=O)O  +ve (<10 uM)

Go through the items and report each one's HepaRG <10 uM All.
1. NCCCC(O)(P(=O)(O)O)P(=O)(O)O [alendronate]
2. CN(C)C(=O)Oc1cccc([N+](C)(C)C)c1
3. CCOC(=O)CN[C@@H](C(=O)N1CC[C@H]1C(=O)NCc1ccc(/C(N)=N\O)cc1)C1CCCCC1

Given back:
+ve (<10 uM)
-ve
-ve

Can you give me HepaRG <10 uM All for all of these, one by one?
1. COc1ccccc1Oc1c(NS(=O)(=O)c2ccc(C(C)(C)C)cc2)nc(-c2ncccn2)nc1OCCO
2. CC(C)C(=O)Nc1ccc([N+](=O)[O-])c(C(F)(F)F)c1 [flutamide, reference compound]
3. Cc1cc2c(cc1CC(=O)c1sccc1S(=O)(=O)Nc1onc(C)c1Cl)OCO2

Given back:
-ve
+ve (<10 uM)
+ve (<10 uM)

I have 6 molecules here; please give me HepaRG <10 uM All for each one.
1. CN(C)C(=N)N=C(N)N
2. CC(=O)N1CCN(c2ccc(OCC3COC(Cn4ccnc4)(c4ccc(Cl)cc4Cl)O3)cc2)CC1 (centres unmarked) [ketoconazole, reference compound]
3. CN(Cc1cnc2nc(N)nc(N)c2n1)c1ccc(C(=O)N[C@@H](CCC(=O)O)C(=O)O)cc1 [methotrexate, reference compound]
4. CN(C)CCC(c1ccc(Cl)cc1)c1ccccn1 (centres unmarked)
5. CCOC(=O)c1ncn2c1CN(C)C(=O)c1cc(F)ccc1-2 [flumazenil, reference compound]
6. O=C1CN(/N=C/c2ccc(-c3ccc([N+](=O)[O-])cc3)o2)C(O)=N1

Given back:
-ve
+ve (<10 uM)
+ve (<10 uM)
-ve
-ve
-ve

Asked: I am curious: what HepaRG <10 uM All value has been reported for CS(=O)(=O)CCNCc1ccc(-c2ccc3ncnc(Nc4ccc(OCc5cccc(F)c5)c(Cl)c4)c3c2)o1 ?
Given back: +ve (<10 uM)
